test system: HCC 2998; test: NCI tumour cell line growth inhibition, 48 h
Active and inactive are the calls of the source. Rule as the data show it: active = GI50 up to about 1.1 µM and inactive = higher.
Please respond with reported GI50 for every item in the list.

Req: Suppose we examine the molecule COCOC1/C=C/CCCCC(=O)C(C)C#CC1 (stereo not given) ; what GI50 value has been reported?
Resp: 7.89 µM (inactive)

Req: Can you handle "CC(=O)OC[C@H]1On2nnnc2[C@H](OC(C)=O)[C@@H](OC(C)=O)[C@@H]1OC(C)=O" next?
Resp: > 100 µM (inactive)

Req: Can you handle CCc1cc2c(c3c1CCC3=O)CC1(Cc3ccc(C)cc3C1)C2 (stereo not given) next?
Resp: 33.9 µM (inactive)

Req: Can you handle "Cc1csc2c(P(=O)(OC(C)C)OC(C)C)c(-c3ccccc3)cn12" next?
Resp: 14.6 µM (inactive)

Req: Can you handle C=C(CN(CC)CC)C1(c2ccccc2)CC2(CCCC2)C(=O)O1 (stereo not given) next?
Resp: > 100 µM (inactive)

Req: Can you handle "CCCCCCCCCCCC[N+]12CC[N+](C)(CC1)CC2" next?
Resp: 8.09 µM (inactive)

Req: Can you handle "CCCCCCc1cc2cc(C(=O)Nc3ccccc3F)c(=N)oc2cc1O" next?
Resp: 18.7 µM (inactive)

Req: Can you handle "CC(=O)Nc1ccc2nc(-c3cccc(F)c3)cc(O)c2c1" next?
Resp: 6.4 µM (inactive)

Req: Can you handle "CN1CCN(C2=CC(=O)c3c(O)ccc(O)c3C2=O)CC1" next?
Resp: 1.82 µM (inactive)

Req: Can you handle "CC(=O)O[C@H]1CC[C@@]2(C)C(=CC[C@@H]3[C@@H]2CC[C@]2(C)c4c(C)nn(-c5ccccc5)c4C[C@@H]32)C1" next?
Resp: 16.4 µM (inactive)
